# System tested: Mmp7 (rat); also: test concentration or dose not given here
# Assay text: reporter assay of Huesken 2005
# Condition info: siRNA
Oligonucleotides are given in HELM: sugar(base)linkage, 5' to 3'; d 2'-deoxyribose, r ribose, m 2'-O-methylribose, p phosphate. ss, as = sense and antisense strand
For each record, write down the corresponding normalised inhibition (eCFP-eYFP dual reporter).
State just the number; it will be interpreted in %.

Problem: Supply normalised inhibition (eCFP-eYFP dual reporter) value. Item: RNA1{r(G)p.r(C)p.r(C)p.r(U)p.r(C)p.r(G)p.r(G)p.r(C)p.r(G)p.r(G)p.r(A)p.r(G)p.r(A)p.r(U)p.r(G)p.r(C)p.r(U)p.r(C)p.r(A)p.d(T)p.d(T)}|RNA2{r(U)p.r(G)p.r(A)p.r(G)p.r(C)p.r(A)p.r(U)p.r(C)p.r(U)p.r(C)p.r(C)p.r(G)p.r(C)p.r(C)p.r(G)p.r(A)p.r(G)p.r(G)p.r(C)p.d(C)p.d(T)}$$$RNA1{StrandType:ss}|RNA2{StrandType:as}$
Solution: 90.2

Problem: Fill in reported normalised inhibition (eCFP-eYFP dual reporter) for this entry: RNA1{r(G)p.r(A)p.r(A)p.r(G)p.r(U)p.r(G)p.r(A)p.r(C)p.r(C)p.r(G)p.r(C)p.r(A)p.r(C)p.r(U)p.r(U)p.r(C)p.r(A)p.r(G)p.r(U)p.d(T)p.d(T)}|RNA2{r(A)p.r(C)p.r(U)p.r(G)p.r(A)p.r(A)p.r(G)p.r(U)p.r(G)p.r(C)p.r(G)p.r(G)p.r(U)p.r(C)p.r(A)p.r(C)p.r(U)p.r(U)p.r(C)p.d(T)p.d(C)}$$$RNA1{StrandType:ss}|RNA2{StrandType:as}$
Solution: 40.5
